Test system: SARS-CoV-2 reference strain
Protocol: microbe, parasite or virus in culture
Format: cell-based
Details: Severe acute respiratory syndrome coronavirus 2, Calu-3; Calu3 cells, SARS-CoV-2 reference strain, 24 hours; read-out: concentration leading to 50% inhibition of the viral replication
Attribute Measured: IC50

>>> result("C(=C\\c1nc2ccccc2s1)/c1cccc(N(c2cccc(/C=C/c3nc4ccccc4s3)c2)c2cccc(/C=C/c3nc4ccccc4s3)c2)c1")
"~1000 nM"

* * *

Protocol: in vitro
Details: human
Attribute Measured: CC50

>>> result("C(=C\\c1nc2ccccc2s1)/c1cccc(N(c2cccc(/C=C/c3nc4ccccc4s3)c2)c2cccc(/C=C/c3nc4ccccc4s3)c2)c1 [TP m 3BTZ compound]")
"> 50 µM"

* * *

System: SARS-CoV-2
Protocol: Antiviral activity summarised over all the cell lines
Assay type: cell-based
Details: Severe acute respiratory syndrome coronavirus 2; among all the cell lines
Attribute Measured: IC50

>>> result("C(=C\\c1nc2ccccc2s1)/c1cccc(N(c2cccc(/C=C/c3nc4ccccc4s3)c2)c2cccc(/C=C/c3nc4ccccc4s3)c2)c1")
"250 to 5000 nM"
